Target: human cathepsin F (Homo sapiens, UniProt Q9UBX1)
Sequence (Q9UBX1 271-484): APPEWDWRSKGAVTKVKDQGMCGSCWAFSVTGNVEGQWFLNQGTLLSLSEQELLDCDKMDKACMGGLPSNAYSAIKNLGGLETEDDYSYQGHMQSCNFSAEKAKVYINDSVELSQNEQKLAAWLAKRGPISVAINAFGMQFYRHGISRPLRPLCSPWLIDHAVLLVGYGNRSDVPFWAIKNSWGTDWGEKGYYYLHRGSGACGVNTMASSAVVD
Test: Cathepsin F assay (hCat F)
Type: biochemical
Settings: Z-Phe-Arg-AMC substrate, pH 5.5, 15 min preincubation; read-out: hCat F (IP (nM))
Assay endpoint: IC50 (nM)

| Compound | Test target | Endpoint result |
| --- | --- | --- |
| N#CC1(NC(=O)[C@@H]2CCCC[C@H]2c2nc(Oc3ccc(F)cc3)sc2-c2ccc(N3CCS(=O)(=O)CC3)cc2)CC1 [Example 189] | human cathepsin F (Homo sapiens, UniProt Q9UBX1) | 788 |
| Cc1ccc(-c2nc([C@@H]3CC[C@H](F)C[C@H]3C(=O)N[C@@H](C)C#N)c(-c3ccc(N4CCS(=O)(=O)CC4)cc3)s2)nn1 [Example 195] | human cathepsin F (Homo sapiens, UniProt Q9UBX1) | 1940 |
| N#CC1(NC(=O)[C@@H]2CCCC[C@H]2c2nc(-c3ccc(C4CCOCC4)cc3)sc2-c2ccc(N3CCS(=O)(=O)CC3)cc2)CC1 [Example 121] | human cathepsin F (Homo sapiens, UniProt Q9UBX1) | 1110 |

(1) N#CC1(NC(=O)[C@@H]2C[C@@H](F)CC[C@H]2c2nc(-c3cncc(F)c3)sc2-c2ccc(N3CCS(=O)(=O)CC3)cc2)CC1 [Compound 7]
(2) Cc1nc([C@@H]2CC[C@H](F)C[C@H]2C(=O)NC2(C#N)CC2)c(-c2ccc(N3CCC(F)(F)CC3)cc2)s1 [Example 240]
Prompt: // select label with min value of measured IC50 from [ 1 , 2 ] Please indicate the selected item by its label.
Completion: 1

All values here come from patent US9573913B2.
